Data provenance: PubChem BioAssay AID2823

# Tested target: RanGTP-importin-beta complex (human Ran / KPNB1)
# Test details: disruptors of RanGTP/KPNB1 binding – biochemical, FRET, CFP/YFP, cell-free homogeneous, confirmation (AID 2823)
# Assay setup: CFP-Ran/YFP-importin-beta FRET ratio
Calls of active or inactive are those of the source. The rule behind the calls is not given here.
Tick one outcome: active, inactive

{"Substance smiles": "Cc1cc(O)ccc1NC1=CC(=O)CC(C)(C)C1", "Label class": "inactive"}

I'd appreciate the recorded outcome for `Cc1ccc(S(=O)(=O)NCCc2cn3nc(C)c(C)nc3n2)cc1C` from this test.
active

// return assay outcome for `COc1cc(/C=C(\C#N)C(=O)Nc2cccc3ncccc23)cc(OC)c1OC`
inactive

Tell me the assay call for `CCN(CC)Cc1c(O)c(Cl)cc2c3c(c(=O)oc12)CCCC3` please.
active

Query: recorded result category for `O=C1NC(=O)N(Cc2ccccc2)C(=O)/C1=C/N1CCCc2ccccc21` in this test
inactive

For this molecule, state the assay outcome: `Oc1ccc(/C=N/Nc2ccc3ccccc3c2)c(O)c1`
inactive
